The reported measurements were obtained from ChEMBL document CHEMBL5338804.

ASSAY_TEXT: Thermodynamic aqueous solubility of the compound at pH 1 incubated for 18 to 24 hrs by HPLC-UV analysis
Type: physicochemical
TEST_CONTEXT: aqueous medium, time 18-24 hrs, read-out: Therm_solubility
Listing: solubility thermodynamic of selected compounds
Your answer is read as µg/mL, so omit the unit and give the number.

{"columns": ["COMPOUND_STRUCTURE_STRING", "READOUT_TYPE", "UNIT", "MEASURED_NUMBER"],
 "data": [
  ["N#Cc1ccc(Nc2nccc(C(=O)Nc3cnccc3-c3ccc(F)cc3)n2)cc1", "solubility thermodynamic", "µg/mL", 16]
]}

Could you please provide reported solubility thermodynamic for O=C(Nc1cnccc1-c1ccc(F)cc1)c1ccnc(Nc2ccc(F)cc2)n1 ? Thanks! 31
